Measured log10(O2 permeability), listed per entry for reference.
Values reflect log10 of reported O2 permeability (Barrer).

*Oc1cc2c(cc1O*)C1(CC2(C)CC)c2cc3c(cc2C(C)(CC)C1C)Oc1c(C#N)c(*)c(*)c(C#N)c1O3 (repeat unit) = 2.91
*CN1CN(*)Cc2cc3c(cc21)C1c2ccccc2C3c2cc(*)c(*)cc21 (repeat unit) = 3.28
*CC(*)C(=O)OCCCCCCCCCCCCCC (repeat unit) = 1.76
*CCSS* (repeat unit) = -0.54
*C(=C(*)c1ccc2c(c1)C1(CC1)c1ccccc1-2)c1ccc([Si](C)(C)C)cc1 (repeat unit) = 3.00

Now for the compound whose log10(O2 permeability) we want.
Incoming: Give the measured log10(O2 permeability) for *c1ccc(Oc2ccc(C(c3ccc(Oc4ccc(N5C(=O)c6ccc(C(c7ccc8c(c7)C(=O)N(*)C8=O)(C(F)(F)F)C(F)(F)F)cc6C5=O)cc4C(F)(F)F)cc3)(C(F)(F)F)C(F)(F)F)cc2)c(C(F)(F)F)c1 (repeat unit)
Outgoing: 0.81

From: a polymer gas permeability compilation
